Molecular target: SARS-CoV-2 3CL protease (Severe acute respiratory syndrome coronavirus 2)
Assay: biochemical
Conditions: 50% SARS-CoV-2 3CL protease inhibitory concentration, given as class symbols; read-out: IC50
pIC50: −log10 of the molar value.
measure: pIC50

Cc1cncc(-n2c(=O)nc(Nc3cc4cn(C)nc4cc3Cl)n(Cc3cc(F)c(F)c(F)c3)c2=O)c1F [II-0270] : > 7.00
Cn1cnc(Cn2c(=O)nc(Nc3cc4sc(NCC(F)F)nc4cc3Cl)n(Cc3cc(F)c(F)cc3F)c2=O)n1 [II-0500] : > 7.00
Cc1cncc(-n2c(=O)nc(Nc3cc4cn(C)nc4cc3Cl)n(Cc3cc(F)c(F)cc3Br)c2=O)c1 [II-0404] : > 7.00
CNc1nc2ccc(Nc3nc(=O)n(Cc4cc(Cl)c[nH]c4=O)c(=O)n3Cc3cc(F)c(F)c(F)c3)cc2s1 [II-0041] : > 7.00
COC(=O)Nc1nc2cc(Cl)c(Nc3nc(=O)n(Cc4ncn(C)n4)c(=O)n3Cc3cc(Cl)c(F)cn3)cc2s1 [II-0080] : > 7.00
O=C1CN=CC=C1Cn1c(=O)nc(Nc2cc3c(cc2Cl)OCCC3)n(Cc2cc(F)c(F)cc2F)c1=O [II-0047] : > 7.00

Field: next compound
Prompt line: Let me know recorded pIC50 for Cc1cncc(-n2c(=O)nc(Nc3cc4cn(C)nc4cc3Cl)n(Cc3cccc(F)c3Cl)c2=O)c1 [II-0188] , thanks.
Response line: > 7.00

---

Target: SARS-CoV-2 3CL protease (Severe acute respiratory syndrome coronavirus 2)
Experiment: biochemical
Settings: 50% SARS-CoV-2 3CL protease inhibitory concentration, given as class symbols; read-out: IC50
measure: IC50

Cc1cncc(-n2c(=O)nc(Nc3cc4cn(C5COC5)nc4cc3Cl)n(Cc3ccc(F)c(C#N)c3)c2=O)c1 [II-0158] : < 100 nM
Cc1cncc(-n2c(=O)nc(Nc3cc4cn(C)nc4cc3Cl)n(Cc3cc(C#N)ccc3F)c2=O)c1 [II-0301] : < 100 nM
Cn1cc(-c2ccnc(Cn3c(=O)nc(Nc4cc5cn(C)nc5cc4Cl)n(Cc4cc(F)c(F)cc4F)c3=O)c2)cn1 [II-0254] : < 100 nM
Cc1cncc(-n2c(=O)nc(Nc3cc4cn(C)nc4cc3Cl)n(Cc3cc(C#N)ccc3Cc3cccc(F)c3)c2=O)c1 [II-0027] : < 100 nM
Cc1cncc(-n2c(=O)nc(Nc3cc4cn(C)nc4cc3Cl)n(Cc3cc(F)c(F)cc3C)c2=O)c1 [II-0403] : < 100 nM

Prompt line: Identify measured IC50 associated with O=c1nc(Nc2cc3c(cc2Cl)OCC3)n(Cc2cc(F)c(F)c(F)c2)c(=O)n1-c1cncc2ccccc12 [II-0049]
Response line: < 100 nM

Prompt line: Retrieve IC50 measured for Cc1cncc(-n2c(=O)nc(Nc3cc4cn(C)nc4cc3Cl)n(Cc3cc(F)c(F)cc3Cl)c2=O)c1 [II-0402] and print it.
Response line: < 100 nM

---

pIC50 by entry:
Target: SARS-CoV-2 3CL protease (Severe acute respiratory syndrome coronavirus 2, UniProt P0DTD1)
Experiment: biochemical
Settings: 50% SARS-CoV-2 3CL protease inhibitory concentration; RapidFire MS; read-out: IC50
// scale note: pIC50 = -log10(conc_M); give the bare number

Some solved cases for reference:
CCn1cc2cc(Nc3nc(=O)n(-c4cncc(Cl)c4)c(=O)n3Cc3cc(C#N)c(F)cc3C)ccc2n1 : 8.19
Cc1cncc(-n2c(=O)nc(Nc3cc4cn(C)nc4cc3Cl)n(Cc3cc(C#N)c(F)cc3C)c2=O)c1 : 8.82
Cn1cnc(Cn2c(=O)nc(Nc3cc4cn(C)nc4cc3Cl)n(Cc3cc(F)c(F)c(F)c3F)c2=O)n1 : 8.01
COc1ccc(Oc2nc(=O)n(Cc3ccc[nH]c3=O)c(=O)n2Cc2cc(F)c(F)c(F)c2)c(C)c1 : 5.01
Cn1cc2cc(Nc3nc(=O)n(-c4cncc(Cl)c4)c(=O)n3Cc3ccc(F)c(C#N)c3)c(F)cc2n1 : 7.80

Prompt line: Please give the documented pIC50 of CCNC(=O)Cn1c(=O)nc(Nc2cc3cn(C)nc3cc2Cl)n(Cc2cc(F)c(F)c(F)c2)c1=O
Response line: 6.85

Prompt line: Input Cc1cncc(-n2c(=O)nc(Nc3cc4cn(C)nc4cc3Cl)n(Cc3cc(Cl)ccc3C)c2=O)c1 , output reported pIC50.
Response line: 8.70

---

Target: SARS-CoV-2 3CL protease (Severe acute respiratory syndrome coronavirus 2, UniProt P0DTD1)
Assay: biochemical
Conditions: 50% SARS-CoV-2 3CL protease inhibitory concentration; RapidFire MS; read-out: IC50
As shown below, each of these compounds has a reported log10 IC50 value.
Could you please treat all values as log10 of IC50 in nM?

Solved entries (count: 3):
Cc1cncc(-n2c(=O)nc(Nc3ccc4nn(CC(F)(F)F)cc4c3)n(Cc3cc(C#N)ccc3Cl)c2=O)c1 : 0.53
O=c1[nH]c2ncccc2cc1Cn1c(=O)nc(Nc2cc3cn(CCO)nc3cc2Cl)n(Cc2cc(F)c(F)c(F)c2)c1=O : 0.62
Cc1nc2cc(Cl)c(Nc3nc(=O)n(Cc4ccc[nH]c4=O)c(=O)n3Cc3cc(F)c(F)c(F)c3)cc2n1CC(F)F : 0.71

Prompt line: GET log10 IC50 where system = SARS-CoV-2 3CL protease (Severe acute respiratory syndrome coronavirus 2, UniProt P0DTD1) and item = COc1ccc(Nc2nc(=O)n(-c3cc(C)cnn3)c(=O)n2Cc2cc(F)c(F)c(F)c2)cc1
Response line: 3.00

Prompt line: Name the value of log10 IC50 reported for CCn1cc2cc(Nc3nc(=O)n(-c4cncc(C)c4)c(=O)n3Cc3ccc(F)c(C#N)c3)c(Cl)cc2n1 when tested on SARS-CoV-2 3CL protease (Severe acute respiratory syndrome coronavirus 2, UniProt P0DTD1).
Response line: 0.65

Prompt line: Give measured log10 IC50 for Cc1cncc(-n2c(=O)nc(N(C)c3cc4cn(C)nc4cc3Cl)n(Cc3cc(F)c(F)c(F)c3)c2=O)c1 (SARS-CoV-2 3CL protease (Severe acute respiratory syndrome coronavirus 2, UniProt P0DTD1)).
Response line: 3.26

Prompt line: Provide log10 IC50, tested on SARS-CoV-2 3CL protease (Severe acute respiratory syndrome coronavirus 2, UniProt P0DTD1), for Cn1cc2cc(Nc3nc(=O)n(CC(=O)NC4CCCCC4)c(=O)n3Cc3cc(F)c(F)c(F)c3)c(Cl)cc2n1 .
Response line: 3.56

Prompt line: Name the recorded log10 IC50 of CCn1cc2cc(Nc3nc(=O)n(-c4cncc(Cl)c4)c(=O)n3Cc3cc(C#N)ccc3Cl)ccc2n1 , assay system SARS-CoV-2 3CL protease (Severe acute respiratory syndrome coronavirus 2, UniProt P0DTD1).
Response line: 0.92

Prompt line: Provide log10 IC50, system SARS-CoV-2 3CL protease (Severe acute respiratory syndrome coronavirus 2, UniProt P0DTD1), entry O=c1[nH]cccc1Cn1c(=O)nc(NC2(c3ccccc3F)COC2)n(Cc2cc(F)c(F)c(F)c2)c1=O
Response line: 3.53

Prompt line: Fill in log10 IC50 for Cc1cncc(-n2c(=O)nc(Nc3cc4cn(C)nc4cc3Cl)n(Cc3cc(Cl)c(F)cc3F)c2=O)c1 tested with SARS-CoV-2 3CL protease (Severe acute respiratory syndrome coronavirus 2, UniProt P0DTD1).
Response line: 0.48

Prompt line: Please report the measured log10 IC50 for C#Cc1cncc(-n2c(=O)nc(Nc3ccc(OC)cc3)n(Cc3cc(F)c(F)c(F)c3)c2=O)c1 tested on SARS-CoV-2 3CL protease (Severe acute respiratory syndrome coronavirus 2, UniProt P0DTD1).
Response line: 2.67

Prompt line: Quote SARS-CoV-2 3CL protease (Severe acute respiratory syndrome coronavirus 2, UniProt P0DTD1) log10 IC50 for entry CCn1cc2cc(Nc3nc(=O)n(Cc4ncn(C)n4)c(=O)n3Cc3cc(F)c(F)cc3F)c(Cl)cc2n1 .
Response line: 1.15

Prompt line: Report log10 IC50 on SARS-CoV-2 3CL protease (Severe acute respiratory syndrome coronavirus 2, UniProt P0DTD1) for this entry: Cn1cnc(Cn2c(=O)nc(Nc3cc4cn(CC(=O)N5CCOCC5)nc4cc3Cl)n(Cc3cc(Cl)c(F)cc3F)c2=O)n1
Response line: 0.40

Prompt line: Report log10 IC50 from SARS-CoV-2 3CL protease (Severe acute respiratory syndrome coronavirus 2, UniProt P0DTD1) testing of O=C1CCC(Nc2nc(=O)n(Cc3ccc[nH]c3=O)c(=O)n2Cc2cc(F)c(F)c(F)c2)CN1 (racemic)
Response line: 3.53

Prompt line: Return reported log10 IC50 for target or system SARS-CoV-2 3CL protease (Severe acute respiratory syndrome coronavirus 2, UniProt P0DTD1), item Cc1cncc(-n2c(=O)nc(Nc3cc4cn(C)nc4cc3Cl)n(Cc3cc(C#N)ccc3C)c2=O)c1 .
Response line: 0.20
